# Measurement parameters: Ebola virus entry assay, blue channel fluorescence
Activity calls are given as the source filed them.
Possible outcomes: TRUE (active), FALSE (inactive)

>  <Compound>
CNC(=O)CN(CCN(CCN(CC(=O)[O-])CC(=O)NC)CC(=O)[O-])CC(=O)[O-].O.[Gd+3]

>  <Discrete label>
FALSE

$$$$
>  <Compound>
C=CCOC(Cn1ccnc1)c1ccc(Cl)cc1Cl (stereo unspecified)

>  <Discrete label>
TRUE

$$$$
>  <Compound>
O=C(O)CCCCCCNC1c2ccccc2CCc2ccccc21

>  <Discrete label>
FALSE

$$$$
>  <Compound>
C[C@]12CC[C@H]3[C@@H](CC=C4C[C@@H](O)CC[C@@]43C)[C@@H]1CC[C@@H]2O

>  <Discrete label>
FALSE

$$$$
>  <Compound>
C=C(C)C(=O)OCC(O)CO (stereo unspecified)

>  <Discrete label>
FALSE

$$$$
>  <Compound>
C=CC[C@]1(O)CC[C@H]2[C@@H]3CCC4=CC(=O)CCC4=C3C=C[C@@]21C

>  <Discrete label>
TRUE

$$$$
>  <Compound>
CCC(C)(C)c1ccc(CC(C)CN2C[C@@H](C)O[C@@H](C)C2)cc1 (stereo partly specified)

>  <Discrete label>
TRUE

$$$$
>  <Compound>
CCCCOc1ccc(OCCCN2CCOCC2)cc1

>  <Discrete label>
TRUE

$$$$
>  <Compound>
C[C@]12CCC(=O)C=C1CC[C@@H]1[C@@H]2[C@@H](O)C[C@@]2(C)[C@H]1CC[C@]2(O)C(=O)CO

>  <Discrete label>
FALSE

$$$$
>  <Compound>
NC(N)=N/N=C/c1c(Cl)cccc1Cl

>  <Discrete label>
TRUE

$$$$
>  <Compound>
CC(=O)SC[C@@H](Cc1ccccc1)C(=O)NCC(=O)OCc1ccccc1

>  <Discrete label>
TRUE

$$$$

---

// activity change, negative = inhibition lookup, one value per entry
# Assay protocol: qHTS Assay for Lipid Storage Modulators (AID 1519); note: % is set by controls: 0 for no effect and ±100 for the full control effect
# Measurement parameters: Drosophila S3 cells, BODIPY lipid droplet/cell ratio, laser cytometry; at 25.7 µM (top of the series); cells loaded with oleic acid
Results filed as inconclusive are left out.
Assay readout: activity change, negative = inhibition (%)

>  <Chem smiles>
OC(c1ccccc1)(c1ccccc1)C1CCNCC1

>  <Measured result>
-3.2

$$$$
>  <Chem smiles>
C[C@H](N)[C@H](O)c1ccc(O)c(O)c1

>  <Measured result>
-2.9

$$$$
>  <Chem smiles>
COc1ccc(CN2CCNCC2)c(OC)c1OC

>  <Measured result>
-1.99

$$$$
>  <Chem smiles>
c1ccc2nc(N3CCNCC3)ccc2c1

>  <Measured result>
-1.91

$$$$
>  <Chem smiles>
CC(C)[N+](C)(CCC(C(N)=O)(c1ccccc1)c1ccccc1)C(C)C

>  <Measured result>
-0.769

$$$$
>  <Chem smiles>
NC(N)=NC(=O)c1nc(Cl)c(N)nc1N

>  <Measured result>
-0.295

$$$$
>  <Chem smiles>
COC(=O)C1=CCCN(C)C1

>  <Measured result>
0.438

$$$$
>  <Chem smiles>
O=C(CCCN1CCC(n2c(=O)[nH]c3ccccc32)CC1)c1ccc(F)cc1

>  <Measured result>
0.264

$$$$
>  <Chem smiles>
CCC(=O)O[C@H]1CC[C@H]2[C@@H]3CCC4=CC(=O)CC[C@]4(C)[C@H]3CC[C@]12C

>  <Measured result>
0.757

$$$$
>  <Chem smiles>
O=C1CC2(CCCC2)CC(=O)N1CCCCN1CCN(c2ncccn2)CC1

>  <Measured result>
0.205

$$$$
>  <Chem smiles>
COC(=O)C1=C(C)NC(C)=C(C(=O)OC)C1c1ccccc1[N+](=O)[O-]

>  <Measured result>
-3.56

$$$$

---

# Assay protocol: qHTS of pediatric cancer cell lines to identify multiple opportunities for drug repurposing: Primary screen for BT-37 cells (AID 1347094)
# Measurement parameters: BT-37 viability, CellTiter-Glo luminescence, 48 h; series mostly up to 57.3 µM
Inconclusive results are not listed. Calls of active or inactive are those of the source. The call rests on the fitted dose curve; in most records, active means well fitted cell-killing curve with a large enough effect; inconclusive means small, poorly fitted or top-dose-only effect; inactive means flat fitted curve, though single readings scatter.
Outcomes: active, inactive

>  <Compound>
CN1C[C@@H](NS(=O)(=O)N(C)C)C[C@@H]2c3cccc4c3c(cn4C)C[C@H]21

>  <Discrete label>
inactive

$$$$
>  <Compound>
CC(Cc1ccc2c(c1)OCO2)NO (stereo unspecified)

>  <Discrete label>
inactive

$$$$
>  <Compound>
CC1Sc2c(C(=O)O)c(=O)c3cc(F)c(N4CCNCC4)cc3n21 (stereo unspecified)

>  <Discrete label>
inactive

$$$$
>  <Compound>
O=C1NCN(c2ccccc2)C12CCN(CCCOc1ccc(F)cc1)CC2

>  <Discrete label>
active

$$$$
>  <Compound>
Oc1c(Br)cc(Br)cc1Br

>  <Discrete label>
inactive

$$$$
>  <Compound>
O=C(CCCCl)c1ccc(F)cc1

>  <Discrete label>
inactive

$$$$
>  <Compound>
NC1(c2ccccc2)CCCCC1

>  <Discrete label>
inactive

$$$$
>  <Compound>
CN(C)C(=S)SSC(=S)N(C)C

>  <Discrete label>
active

$$$$
>  <Compound>
CNC(=O)Oc1cccc2ccccc12

>  <Discrete label>
inactive

$$$$
>  <Compound>
C[C@]12CC[C@H](O)CC1=CC[C@@H]1[C@@H]2CC[C@]2(C)C(=O)CC[C@@H]12

>  <Discrete label>
inactive

$$$$
>  <Compound>
CN1C2CCC(C)(C)C1CC(OC(=O)C(O)(c1cccs1)c1cccs1)C2 (stereo unspecified)

>  <Discrete label>
inactive

$$$$
>  <Compound>
COc1cc(N)c(Cl)cc1C(=O)NC1CN2CCC1CC2 (stereo unspecified)

>  <Discrete label>
inactive

$$$$
>  <Compound>
CC(C)[N+](C)(CCC(C(N)=O)(c1ccccc1)c1ccccc1)C(C)C

>  <Discrete label>
inactive

$$$$
>  <Compound>
C=CCN1CC[C@]23CCCC[C@H]2[C@H]1Cc1ccc(O)cc13

>  <Discrete label>
inactive

$$$$
>  <Compound>
COc1ccc(OC)c(CC(C)N)c1 (stereo unspecified)

>  <Discrete label>
inactive

$$$$
>  <Compound>
Nc1ccc(N)cc1

>  <Discrete label>
inactive

$$$$
>  <Compound>
COC(=O)C1=CCCN(C)C1

>  <Discrete label>
inactive

$$$$
>  <Compound>
CN1C(=O)CN=C(c2ccccc2)c2cc(Cl)ccc21

>  <Discrete label>
inactive

$$$$
>  <Compound>
CN(C)CCc1c[nH]c2cccc(O)c12

>  <Discrete label>
inactive

$$$$
>  <Compound>
CC(Cc1ccccc1)NCc1ccccc1Cl (stereo unspecified)

>  <Discrete label>
inactive

$$$$
>  <Compound>
C[C@H](N)[C@H](O)c1ccc(O)c(O)c1

>  <Discrete label>
inactive

$$$$
>  <Compound>
C=CCOC(Cn1ccnc1)c1ccc(Cl)cc1Cl (stereo unspecified)

>  <Discrete label>
inactive

$$$$
>  <Compound>
ClCc1cccc(Cl)c1

>  <Discrete label>
inactive

$$$$
>  <Compound>
CCC(=O)OC1(c2ccccc2)CCN(C)CC1

>  <Discrete label>
inactive

$$$$
>  <Compound>
COP(=S)(OC)Oc1ccc(Sc2ccc(OP(=S)(OC)OC)cc2)cc1

>  <Discrete label>
inactive

$$$$
>  <Compound>
C[C@]12C=CC(=O)C=C1CC[C@@H]1[C@@H]2CC[C@@]2(C)[C@H]1CC[C@]2(C)O

>  <Discrete label>
inactive

$$$$

---

# Assay protocol: qHTS for Inhibitors of the Functional Ribonucleoprotein Complex (vRNP) of Lassa (LASV) Arenavirus: LASV Primary Screen - GLuc reporter signal (AID 1347082); note: % is set by controls: 0 for no effect and ±100 for the full control effect; nearly all actives have a fitted effect of over 60% in size
# Measurement parameters: LASV minigenome vRNP, Gaussia luciferase reporter; series mostly up to 57.5 µM
Results filed as inconclusive are left out. Activity calls are given as the source filed them. Calls come from the whole dose curve; tested in HEK293 reporter line.

>  <Chem smiles>
NC[C@H]1O[C@H](O[C@H]2[C@H](O)[C@@H](O[C@H]3O[C@H](CO)[C@@H](O)[C@H](N)[C@H]3O)[C@H](N)C[C@@H]2N)[C@H](N)[C@@H](O)[C@@H]1O

>  <outcome>
inactive

$$$$
>  <Chem smiles>
CCCCOc1ccc(C(=O)CCN2CCCCC2)cc1

>  <outcome>
inactive

$$$$
>  <Chem smiles>
CCOC(=O)Cn1cccc1-c1nc(-c2ccc(OC)cc2)c(-c2ccc(OC)cc2)s1

>  <outcome>
inactive

$$$$
>  <Chem smiles>
CN(C)CCN(Cc1ccccc1)c1ccccn1

>  <outcome>
inactive

$$$$
>  <Chem smiles>
CC(C)=CCC/C(C)=C/CC/C(C)=C/C(=O)OCC(=O)[C@@]1(O)CC[C@H]2[C@@H]3CCC4=CC(=O)C=C[C@]4(C)[C@H]3[C@@H](O)C[C@@]21C

>  <outcome>
inactive

$$$$
>  <Chem smiles>
O=C(O)Cn1c(C(=O)Nc2nc(-c3ccccc3Cl)cs2)cc2ccccc21

>  <outcome>
inactive

$$$$
>  <Chem smiles>
N[C@H](Cc1c[nH]c2ccccc12)C(=O)O

>  <outcome>
inactive

$$$$
>  <Chem smiles>
O=C(O)/C=C/c1ccc(Cn2ccnc2)cc1

>  <outcome>
inactive

$$$$
>  <Chem smiles>
C/C=C/C(=O)N(CC)c1ccccc1C

>  <outcome>
inactive

$$$$
